Hey, just so you know, these numbers are from patent US20240002436A1.

tested on: CD11b on PMNL surface; assay: CD11b change on PMNL surface stimulated by CCL11 (flow cytometry); type: cell-based; conditions: Homo sapiens, PMNL, 0.5 h; 1 μg/mL test compound, 30 min pretreatment, 2.5 nm CCL11 30 min at 37° C., CD16 negative cells; assay SD +/-2%; read-out: CD11b change (100% as baseline)
observable: activity at 1 µg/mL (%)
Please give a number only; it is taken to be in %.

// known answers, use as guide
compound	assayedTarget	activity at 1 µg/mL (%)
CCCCC(C)CC(C)C(=O)N(C)[C@@H](CC(C)C)C(=O)N[C@@H](COC(C)=O)C(=O)N(C)[C@H](C(=O)N1C[C@@H](O)C[C@H]1C(=O)N1C(=O)C=C[C@@H]1C)C(C)C (some centres unmarked) [Compound 9a]	CD11b on PMNL surface	127
CCCCC(C)CC(C)C(=O)N(C)CC(=O)N[C@H](C(=O)N(C)CC(=O)N1C[C@@H](O)C[C@H]1C(=O)N1C(=O)C=C[C@@H]1C)C(C)OC(C)=O (some centres unmarked) [Compound 7a]	CD11b on PMNL surface	149
CCCC[C@@H](C)C[C@@H](C)C(=O)N(C)[C@@H](CC(C)C)C(=O)N[C@H](C(=O)N(C)[C@H](C(=O)N1C[C@@H](O)C[C@H]1C(=O)N1C(=O)C=C[C@@H]1C)C(C)C)C(C)OC(C)=O (some centres unmarked) [Compound 1a]	CD11b on PMNL surface	129
CCCCC(C)CC(C)C(=O)N(C)[C@@H](CC(C)C)C(=O)N[C@H](C(=O)N(C)[C@H](C(=O)N1C[C@@H](O)C[C@H]1C(=O)N1C(=O)C=C[C@@H]1C)C(C)C)C(C)OC(C)=O (some centres unmarked) [Compound 1b]	CD11b on PMNL surface	128

Next, consider the following compound.
Exercise: Name the recorded activity at 1 µg/mL for CCCCC(C)CC(C)C(=O)N(C)[C@@H](CC(C)C)C(=O)N[C@H](C(=O)N(C)[C@H](C(=O)N1CCC[C@H]1C(=O)N1C(=O)C=CC1=O)C(C)C)C(C)OC(C)=O (some centres unmarked) [Compound 12a] .
Solution: 141

* * *

Recorded Percent apoptotic eosinophils (annexin V-positive) at 10 µg/mL values for a group of compounds are listed next.
tested on: Allergic Human Purified Peripheral Blood Eosinophils; assay: Percent eosinophil apoptosis (Annexin V-FITC, flow cytometry) in allergic human purified peripheral blood eosinophils; format: cell-based; conditions: Homo sapiens, Eosinophil; 10 μg/mL test compound, IL-5 (50 pM), 18 hr incubation, annexin Vpos; assay SD +/-2.3%; read-out: Percent of apoptotic EO cells
Please give a number only; it is taken to be in %.

// known answers, use as guide
compound	reported
CCCCC(C)CC(C)C(=O)N[C@@H](CC(C)C)C(=O)N[C@H](C(=O)N[C@H](C(=O)N1C[C@@H](O)C[C@H]1C(=O)N1C(=O)C=C[C@@H]1C)C(C)C)C(C)OC(C)=O (some centres unmarked) [Compound 6a]	42.8
CCCCCCCC(=O)N(C)[C@@H](CC(C)C)C(=O)N[C@H](C(=O)N(C)[C@@H](CCSC)C(=O)N1C[C@@H](O)C[C@H]1C(=O)N1C(=O)C=CC1=O)C(C)OC(C)=O (some centres unmarked) [Compound 19a]	41.8
CC/C=C\C/C=C\C/C=C\C/C=C\C/C=C\CCCC(=O)N(C)[C@@H](Cc1ccccc1)C(=O)N[C@H](C(=O)N(C)[C@H](C(=O)N1CCC[C@H]1C(=O)N1C(=O)C=CC1=O)C(C)C)C(C)OC(C)=O (some centres unmarked) [Compound 24a]	64.9
CCCCC(C)CC(C)C(=O)N(C)[C@@H](CC(C)C)C(=O)N[C@@H](CS)C(=O)N(C)[C@H](C(=O)N1CCC[C@H]1C(=O)N1C(=O)C=C[C@@H]1C)C(C)C (some centres unmarked) [Compound 11a]	44.4

Next, consider the following compound.
Exercise: Notebook entry, Allergic Human Purified Peripheral Blood Eosinophils assay: Percent apoptotic eosinophils (annexin V-positive) at 10 µg/mL of CCCCC(C)CC(C)C(=O)N(C)[C@@H](CC(C)C)C(=O)N[C@H](C(=O)N(C)[C@H](C(=O)N1C[C@@H](O)C[C@H]1C(=O)N1C(=O)C=C[C@@H]1C)C(C)C)C(C)O (some centres unmarked) [Compound 8a] = ?
Solution: 60.1

* * *

tested on: CD11b on PMNL surface; assay: CD11b change on PMNL surface stimulated by CCL11 (flow cytometry); assay type: cell-based; details: Homo sapiens, PMNL, 0.5 h; 1 μg/mL test compound, 30 min pretreatment, 2.5 nm CCL11 30 min at 37° C., CD16 negative cells; assay SD +/-2%; read-out: CD11b change (100% as baseline)
Recorded activity at 1 µg/mL values for a group of compounds are listed next.
Please give a number only; it is taken to be in %.

// known answers, use as guide
compound	reported
CCCCC(C)CC(C)C(=O)N(C)[C@@H](CC(C)C)C(=O)N[C@@H](CS)C(=O)N(C)[C@H](C(=O)N1CCC[C@H]1C(=O)N1C(=O)C=C[C@@H]1C)C(C)C (some centres unmarked) [Compound 11a]	135
CCCCC(C)CC(C)C(=O)N[C@@H](CC(C)C)C(=O)N[C@H](C(=O)N[C@H](C(=O)N1C[C@@H](O)C[C@H]1C(=O)N1C(=O)C=C[C@@H]1C)C(C)C)C(C)OC(C)=O (some centres unmarked) [Compound 6a]	141
CCCC[C@@H](C)C[C@@H](C)C(=O)N(C)[C@@H](CC(C)C)C(=O)N[C@H](C(=O)N(C)[C@H](C(=O)N1CCC[C@H]1C(=O)N1C(=O)C=C[C@@H]1C)C(C)C)C(C)OC(C)=O (some centres unmarked) [Compound 3a]	139

Exercise: Notebook entry, CD11b on PMNL surface assay: activity at 1 µg/mL of CCCCCCCC(=O)N(C)[C@@H](CC(C)C)C(=O)N[C@H](C(=O)N(C)[C@H](C(=O)N1C[C@@H](O)C[C@H]1C(=O)N1C(=O)C=C[C@@H]1C)C(C)C)C(C)OC(C)=O (some centres unmarked) [Compound 5a] = ?
Solution: 129

Exercise: Notebook entry, CD11b on PMNL surface assay: activity at 1 µg/mL of CCCCC(C)CC(C)C(=O)N(C)[C@@H](CC(C)C)C(=O)N[C@H](C(=O)N(C)[C@H](C(=O)N1C[C@@H](O)C[C@H]1C(=O)N1C(=O)C=C[C@@H]1C)C(C)C)C(C)O (some centres unmarked) [Compound 8a] = ?
Solution: 122
